tested on: SF-268 CNS; assay: NCI-60 one-dose screen, 48 h; conditions: 10 µM unless noted
This is part of a sample that, as a whole, favours compounds with a hit. Of some 83,000 tested, about 20% had one in any assay. Activity calls are given as the source filed them. The calls were made as follows: active = growth percent below 10; inactive = the rest.
Outcome codes: active, inactive

Compound	Group Label
C#C[C@@]1(O)[C@@H](CO)O[C@@H](n2cc(Cl)c3c(N)ncnc32)[C@@H]1O	inactive
CC(=O)Nc1nc2c(c(N)c1C#N)C(c1cccc(Cl)c1)C1=C(CCCC1=O)N2c1sc2c(c1C#N)CCCC2 (centres undefined)	inactive
CCCNc1nc(C)[nH]c(=O)c1S	inactive
CN(C)C(CNc1oc(-c2cccc3ccccc23)nc1C#N)c1ccco1 (centres undefined)	inactive
COCCc1n(Cc2ccc3ccccc3c2)c2ccccc2[n+]1Cc1ccc2ccccc2c1	active
O=C(CCc1nnc2sc(OCc3ccccc3)nn12)c1nc2ccc([N+](=O)[O-])cc2[nH]1	inactive
CC1=C(CCCOC(=O)NCCCl)C2=C(C)C3(CC3)[C@@](C)(O)C(=O)C2=C1	inactive
O=C1C(Cl)=C(NCCCN(CCCNC2=C(Cl)C(=O)c3ccccc3C2=O)C2=C(Cl)C(=O)c3ccccc3C2=O)C(=O)c2ccccc21	inactive
OCCNc1nc(NCCO)nc(Nc2ccc(C3=NN(c4cc(Cl)cc(Cl)c4)C(c4ccc(Cl)cc4)C3)cc2)n1 (centres undefined)	inactive
